- Test system: SW-620
- experiment summary: NCI tumour cell line growth inhibition, 48 h
Activity calls are given as the source filed them. Rule as the data show it: active = GI50 up to about 1.1 µM and inactive = higher.
Form entry, call: pick from active, inactive

Q: Status in this test for CC(C)(C)OC(=O)NNC(=O)C1Cc2ccccc2OC1=O (stereo unspecified) ?
Ans: inactive

Q: Fill in: this test's call for CN(C)c1c(C2OC(CO)C(O)C2O)c(=O)c1=O (stereo unspecified) is ___
Ans: inactive

Q: What was the test verdict on COc1cc2c(cc1OC)C1c3ccccc3CCN1CCC2.[O-][Cl+3]([O-])([O-])O (stereo unspecified) ?
Ans: inactive

Q: Please state the recorded outcome for this compound: O=C(CCC(=O)c1ccc(Cl)cc1)NO
Ans: inactive

Q: Entry CC1(C)N=C(N)N=C(N)N1c1ccc(OCCCOc2ccccc2)c(Cl)c1 : call = ?
Ans: active

Q: GET /call?item= CC(NC(=O)Cc1ccc(OP(=O)(OCc2ccc([N+](=O)[O-])o2)N(C)CCCCCl)cc1)c1ccc(OCC2CCCCC2)c(C(N)=O)c1 (stereo unspecified) returns the recorded outcome of this test.
Ans: inactive

Q: In this assay, the call recorded for CC(C)(C)c1cc(C2=NNC(c3ccccc3)C2)cc(C(C)(C)C)c1O (stereo unspecified) was what?
Ans: inactive

Q: Would you mind telling me which call this test gave COc1ccc(-c2nc(N)c3ncn(C4OC(CO)C(O)C4O)c3n2)cc1 (stereo unspecified) ?
Ans: inactive

Q: What was the test verdict on COc1ccc2c(c1)[n+]([O-])c(-c1ccc(Br)cc1)c(N)[n+]2[O-] ?
Ans: inactive

Q: Field: outcome | Entry: O=C1NC(=S)N/C1=C\c1ccc(Cl)cc1
Ans: inactive

Q: What did the test return for [N-]=[N+]=Nc1c(Cl)c(=O)n(-c2ccccc2)c2ccccc12 ?
Ans: inactive

Q: Write down the call the test reported for this compound. Item: CCC(C)NC(=S)N/N=C(\C)c1nc2cccnc2[nH]1 (stereo unspecified)
Ans: inactive

Q: Called result for O=[N+]([O-])c1ccc(/N=N/c2c(O)ccc3cc(S(=O)(=O)O)cc(S(=O)(=O)O)c23)cc1
Ans: inactive

Q: Which outcome did this test record for the compound O=c1[nH]nc(-c2ccccc2)n1/N=C/c1ccc([N+](=O)[O-])cc1 ?
Ans: inactive

Q: Lab log entry: CC(=O)C1=C(C)Cn2c(=O)c3ccccc3c(=O)n2C1 — outcome as called in the assay?
Ans: inactive

Q: Tell me the recorded outcome of this test for CC(NC(C#N)CC12CC3CC(CC(C3)C1)C2)c1ccccc1 (stereo unspecified) .
Ans: inactive
